target: Dihydrofolate reductase (Mycobacterium tuberculosis); assay: Inhibition of recombinant Mycobacterium tuberculosis DHFR using 45 uM DHF as substrate by spectrophotometry
Sequence (P9WNX1 whole entry): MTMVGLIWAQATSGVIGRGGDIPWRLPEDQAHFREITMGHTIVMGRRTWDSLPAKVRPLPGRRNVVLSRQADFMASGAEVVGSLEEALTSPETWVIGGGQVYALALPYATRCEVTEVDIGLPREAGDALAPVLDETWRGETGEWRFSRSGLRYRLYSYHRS
reported_endpoint: IC50 (µM)
Number in µM, nothing else.

Problem: I'd like to know its IC50. The molecule in question is `Cc1cccc(Oc2ccc(-c3nc(N)nc(N)n3)cc2)c1C`
Result: 25.9

----------
tested on: Mycobacterium tuberculosis; assay: Antimycobacterium activity against Mycobacterium tuberculosis H37Ra at dormant stage at 10 ug/ml; assay type: functional
Exercise: state measured inhibition at 10 µg/mL for each of the compounds provided.
Please answer using the number first and the unit second.

Problem: I'd like to know its inhibition at 10 µg/mL. The compound in question is `Cc1cc(Cl)ccc1Oc1ccc(-c2nc(N)nc(N)n2)cc1`
Result: 87.2%

Problem: I'd like to know its inhibition at 10 µg/mL. The compound in question is `Nc1nc(N)nc(-c2ccc(Oc3ccc(F)cc3)cc2)n1`
Result: 4.98%

Problem: I'd like to know its inhibition at 10 µg/mL. The compound in question is `Nc1nc(N)nc(-c2ccc(Oc3ccc(Br)cc3)cc2)n1`
Result: 83%

Problem: I'd like to know its inhibition at 10 µg/mL. The compound in question is `Nc1nc(N)nc(-c2ccc(Oc3ccc(Cl)cc3)cc2)n1`
Result: 81.1%

Problem: I'd like to know its inhibition at 10 µg/mL. The compound in question is `CC(C)(C)c1ccc(Oc2ccc(-c3nc(N)nc(N)n3)cc2)cc1`
Result: 42.2%

Problem: I'd like to know its inhibition at 10 µg/mL. The compound in question is `Nc1nc(N)nc(-c2ccc(Oc3ccccc3Cl)cc2)n1`
Result: 27.6%

Problem: I'd like to know its inhibition at 10 µg/mL. The compound in question is `Cc1cccc(Oc2ccc(-c3nc(N)nc(N)n3)cc2)c1C`
Result: 16.1%

Problem: I'd like to know its inhibition at 10 µg/mL. The compound in question is `Nc1nc(N)nc(-c2ccc(Sc3ccccc3)cc2)n1`
Result: 11.7%

Problem: I'd like to know its inhibition at 10 µg/mL. The compound in question is `Cc1cc(Oc2ccc(-c3nc(N)nc(N)n3)cc2)cc(C)c1Cl`
Result: 14.5%

Problem: I'd like to know its inhibition at 10 µg/mL. The compound in question is `Nc1nc(N)nc(-c2ccc(Oc3ccccc3)cc2)n1`
Result: 19.4%

Problem: I'd like to know its inhibition at 10 µg/mL. The compound in question is `Cc1cccc(Oc2ccc(-c3nc(N)nc(N)n3)cc2)c1`
Result: 15%

Problem: I'd like to know its inhibition at 10 µg/mL. The compound in question is `COc1ccc(Oc2ccc(-c3nc(N)nc(N)n3)cc2)cc1`
Result: 37.5%

----------
test system: Staphylococcus aureus; experiment: Antimicrobial activity against Staphylococcus aureus; assay type: functional
Labelling field: enter criterion met if recorded MIC is less than 400 µM. Enter criterion not met if it equals or exceeds that cut-off.

Problem: A record lists `Cc1cc(Oc2ccc(-c3nc(N)nc(N)n3)cc2)cc(C)c1Cl` . Is its MIC below 400 µM?
Result: criterion met

Problem: A record lists `Cc1cccc(Oc2ccc(-c3nc(N)nc(N)n3)cc2)c1` . Is its MIC below 400 µM?
Result: criterion not met

Problem: A record lists `Cc1cc(Oc2ccc(-c3nc(N)nc(N)n3)cc2)ccc1Cl` . Is its MIC below 400 µM?
Result: criterion met

----------
test system: A549; assay: Cytotoxicity against human A549 cells; type: cell-based
reported_endpoint: Activity

smiles_input: Cc1cc(Oc2ccc(-c3nc(N)nc(N)n3)cc2)cc(C)c1Cl
assay_value: Non-toxic
--
smiles_input: Cc1cccc(Oc2ccc(-c3nc(N)nc(N)n3)cc2)c1C
assay_value: Non-toxic
--
smiles_input: Nc1nc(N)nc(-c2ccc(Oc3ccc(Br)cc3)cc2)n1
assay_value: Non-toxic

----------
Exercise: state measured MIC for each of the molecules provided.
tested on: Staphylococcus aureus; test: Antimicrobial activity against Staphylococcus aureus; type: functional
Please answer using the number first and the unit second.

Problem: I'd like to know its MIC. The molecule in question is `Nc1nc(N)nc(-c2ccc(Oc3ccccc3Cl)cc2)n1`
Result: 398 µM

Problem: I'd like to know its MIC. The molecule in question is `COc1ccc(Oc2ccc(-c3nc(N)nc(N)n3)cc2)cc1`
Result: 404 µM

Problem: I'd like to know its MIC. The molecule in question is `Cc1cccc(Oc2ccc(-c3nc(N)nc(N)n3)cc2)c1C`
Result: 407 µM

Problem: I'd like to know its MIC. The molecule in question is `Cc1cccc(C)c1Oc1ccc(-c2nc(N)nc(N)n2)cc1`
Result: 407 µM
